The measured values listed here are drawn from paper PMC8885659.

measurement_kind: plasma half-life (t1/2α) (min)
# number only, unit min dropped from output

The measured plasma half-life (t1/2α) associated with N=C(N)NCCC[C@@H]1NC(=O)[C@H](CCCCNC(=O)CCc2ccc(O[Si]3(Oc4ccc(CCC(=O)O)cc4)n4c5c6ccccc6c4N=C4N=C(N=c6c7ccccc7c(n63)=NC3=NC(=N5)c5ccccc53)c3ccccc34)cc2)NC(=O)[C@@H](Cc2ccc(O)cc2)NC(=O)[C@H](CC(=O)O)NC(=O)CNC1=O (stereo partly shown) reads 45
